- assay.remarks: Single dose and repeated
- Assay type: in vivo, beagle dogs
- particulars: male, beagle, dog, plasma, po, 30 mg/kg, Tmax, 30 mg/kg tablets p.o.; Males, fed
measured.parameter: Tmax (h)

| compound | measured.parameter | value.reported |
| --- | --- | --- |
| O=C1N=C(N2CCOCC2)CN1c1ccc(Cl)cc1 [Imepitoin] | Tmax | 2.44 |

====

- assay.remarks: Single dose and repeated
- Type: in vivo, beagle dogs
- particulars: male, beagle, dog, plasma, po, 30 mg/kg, Cl/f, 30 mg/kg tablets p.o.; Males, fed
measured.parameter: CL/F (mL/min/kg)

| molecule | measured.parameter | unit.descriptor | value.reported |
| --- | --- | --- | --- |
| O=C1N=C(N2CCOCC2)CN1c1ccc(Cl)cc1 [Imepitoin] | CL/F | mL/min/kg | 7.33 |

====

- target.system: UniProt:P04798
- Sequence (P04798 1-512): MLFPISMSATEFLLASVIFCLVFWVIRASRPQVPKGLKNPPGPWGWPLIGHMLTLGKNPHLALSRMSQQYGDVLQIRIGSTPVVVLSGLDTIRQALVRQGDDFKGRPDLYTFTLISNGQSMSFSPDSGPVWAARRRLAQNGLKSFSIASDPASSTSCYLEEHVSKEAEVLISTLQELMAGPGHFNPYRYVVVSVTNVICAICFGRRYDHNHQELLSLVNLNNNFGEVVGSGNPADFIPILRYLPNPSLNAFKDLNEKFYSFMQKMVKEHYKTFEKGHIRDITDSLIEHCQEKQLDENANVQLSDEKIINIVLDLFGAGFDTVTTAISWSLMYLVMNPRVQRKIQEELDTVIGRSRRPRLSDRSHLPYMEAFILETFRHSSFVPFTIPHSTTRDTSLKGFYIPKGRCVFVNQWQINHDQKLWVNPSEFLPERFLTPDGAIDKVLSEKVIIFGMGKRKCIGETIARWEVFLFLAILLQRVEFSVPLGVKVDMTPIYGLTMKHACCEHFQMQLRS
- assay.remarks: In vitro enzyme inhibition, recombinant CYP, fluorescent metabolites
measured.parameter: IC50 (µM)

| molecule | value.reported |
| --- | --- |
| O=C1N=C(N2CCOCC2)CN1c1ccc(Cl)cc1 [Imepitoin] | 55 |

====

- Tested on: plasma protein
- assay.remarks: In vitro plasma protein binding
- Type: in vitro ADME, rats
- particulars: rat, heparinized plasma

| compound | fraction unbound at 15 min, 0.1 μg/mL |
| --- | --- |
| O=C1N=C(N2CCOCC2)CN1c1ccc(Cl)cc1 [Imepitoin] | 0.49 |

====

- Test system: plasma protein
- assay.remarks: In vitro plasma protein binding
- Assay type: in vitro ADME, beagle dogs
- particulars: beagle, dog, heparinized plasma, mean ± SEM, n=3
measured.parameter: fraction unbound at 15 min, 10 μg/mL

| molecule | target.system | measured.parameter | value.reported |
| --- | --- | --- | --- |
| O=C1N=C(N2CCOCC2)CN1c1ccc(Cl)cc1 [Imepitoin] | plasma protein | fraction unbound at 15 min, 10 μg/mL | 0.44 |

====

- assay.remarks: Single dose and repeated
- Assay type: in vivo, beagle dogs
- particulars: both, beagle, dog, plasma, po, 30 mg/kg, Tmax, 30 mg/kg tablets p.o.; Fasted

| molecule | unit.descriptor | Tmax |
| --- | --- | --- |
| O=C1N=C(N2CCOCC2)CN1c1ccc(Cl)cc1 [Imepitoin] | h | 2.17 |

====

- target.system: CYP2A6 (Homo sapiens, UniProt P11509)
- Sequence (P11509 whole entry): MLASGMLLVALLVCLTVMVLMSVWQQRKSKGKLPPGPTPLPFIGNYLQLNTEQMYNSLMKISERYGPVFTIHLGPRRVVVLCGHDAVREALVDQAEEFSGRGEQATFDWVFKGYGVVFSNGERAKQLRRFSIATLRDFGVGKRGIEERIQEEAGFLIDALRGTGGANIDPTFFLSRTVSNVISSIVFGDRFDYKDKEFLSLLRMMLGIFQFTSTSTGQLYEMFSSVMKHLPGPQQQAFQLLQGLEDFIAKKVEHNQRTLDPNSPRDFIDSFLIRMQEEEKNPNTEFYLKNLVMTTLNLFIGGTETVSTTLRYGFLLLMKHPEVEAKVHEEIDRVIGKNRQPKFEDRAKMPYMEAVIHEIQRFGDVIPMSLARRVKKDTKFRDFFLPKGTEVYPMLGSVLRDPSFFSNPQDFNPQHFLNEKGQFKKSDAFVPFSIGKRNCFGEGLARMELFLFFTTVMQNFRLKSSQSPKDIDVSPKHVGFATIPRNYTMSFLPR
- assay.remarks: In vitro enzyme inhibition, recombinant CYP, fluorescent metabolites
pIC50: −log10 of the molar value.

| compound | pIC50 |
| --- | --- |
| O=C1N=C(N2CCOCC2)CN1c1ccc(Cl)cc1 [Imepitoin] | < 4.00 |

====

- assay.remarks: Dose linearity of imepitoin after oral dosing
- Format: in vivo, beagle dogs
- particulars: both, beagle, dog, plasma, po, 50 mg/kg

| compound | Cmax / ng/mL |
| --- | --- |
| O=C1N=C(N2CCOCC2)CN1c1ccc(Cl)cc1 [Imepitoin] | 6410 |

====

- Test system: plasma protein
- assay.remarks: In vitro plasma protein binding
- Format: in vitro ADME, rats
- particulars: rat, heparinized plasma

| compound | fraction unbound at 15 min, 1 μg/mL |
| --- | --- |
| O=C1N=C(N2CCOCC2)CN1c1ccc(Cl)cc1 [Imepitoin] | 0.5 |

// data source = paper PMC4280904
